Measured values drawn from patent US7892350B2 for this set.

Assay: Second sacrificial agent testing protocol: paste air measurements with DDBS (0.0125 wt %) and rating; note: key: 0: Fail; 1: Poor; 2: Good; 3: Preferred; 4: Most preferred
Source text: The second sacrificial agents evaluation protocol has been designed to assess the relative potential value of candidate sacrificial agents with a maximum of five paste air measurements. […] For the relative performance rating of the group of products chosen as potential SA and listed in Table 36, the following rating scheme (Tables A and B) was adopted (referring to FIG. 8 and quantities defined therein): […]
Consider the following compounds; for each one, report its Overall performance rating (second protocol rating).
Answers are plain numbers.

In the examples that follow, each entry is paired with its recorded Overall performance rating (second protocol rating).
NC(N)=O [Urea]
2
OCCOCCOCCO [tri-Ethylene Glycol]
1
CCC(C)=O [2-Butanone]
1
CC(O)CNCC(C)O (centres unmarked) [Di-isopropanolamine]
3
CC(O)COC(C)COC(C)CO (centres unmarked) [tri-Propylene glycol]
4
CCC(C)O (centres unmarked) [2-Butanol]
4
CCCC=O [Butyraldehyde]
2

Now for the compound whose Overall performance rating (second protocol rating) we want.
-- ask Data request, read-out Overall performance rating (second protocol rating), for CCCCCO [1-Pentanol]
-- reply 3
